- TARGET SYSTEM: dopamine D2 (Homo sapiens)
- Sequence (P14416 whole entry, species assumed): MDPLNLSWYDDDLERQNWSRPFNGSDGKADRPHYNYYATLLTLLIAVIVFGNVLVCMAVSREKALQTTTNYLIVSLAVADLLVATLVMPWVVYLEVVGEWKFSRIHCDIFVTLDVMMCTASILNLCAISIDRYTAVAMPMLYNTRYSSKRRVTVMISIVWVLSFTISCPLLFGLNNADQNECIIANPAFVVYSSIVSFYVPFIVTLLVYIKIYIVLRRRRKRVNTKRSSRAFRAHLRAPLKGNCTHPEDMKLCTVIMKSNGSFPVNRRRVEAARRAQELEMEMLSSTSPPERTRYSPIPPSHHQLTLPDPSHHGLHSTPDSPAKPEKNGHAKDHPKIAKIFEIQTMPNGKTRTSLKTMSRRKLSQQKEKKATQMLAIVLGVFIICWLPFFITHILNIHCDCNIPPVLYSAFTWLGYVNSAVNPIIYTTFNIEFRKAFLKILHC
- TEST NAME: Primary radioligand binding assay (NIMH PDSP)
- EXPERIMENTAL SETUP: primary radiobinding assay, [3H]N-methylspiperone
Where a name gives a salt, the structure may show the parent alone.
EXPERIMENTAL READOUT: D2 (% inh)
Please state the figure in % inh; there is no need to write the unit.

{"columns": ["MOLECULE", "D2 (% inh)"],
 "data": [
  ["COc1cc2c(cc1OC)C(=O)C(CC1CCN(Cc3ccccc3)CC1)C2 (stereo not shown) [donepezil, reference compound]", 18.6],
  ["CC1Cc2ccccc2N1C(=O)CN1CCN(Cc2ccccc2)CC1 (stereo not shown)", 66.2],
  ["COc1ccc2c(c1)C(=O)N(CCN1CCN(c3ccccc3OC)CC1)C2 [GFR-VII-280-HCl]", 69.8]
]}

Then there is this molecule:
# get_value(readout='D2 (% inh)', item= COc1ccc2c(c1)CN(CCCN1CCN(c3ccccc3OC)CC1)C2=O )
82.1
